Biological target: Signal peptidase I (Escherichia coli K-12) (UniProt P00803)
Sequence (P00803 whole entry): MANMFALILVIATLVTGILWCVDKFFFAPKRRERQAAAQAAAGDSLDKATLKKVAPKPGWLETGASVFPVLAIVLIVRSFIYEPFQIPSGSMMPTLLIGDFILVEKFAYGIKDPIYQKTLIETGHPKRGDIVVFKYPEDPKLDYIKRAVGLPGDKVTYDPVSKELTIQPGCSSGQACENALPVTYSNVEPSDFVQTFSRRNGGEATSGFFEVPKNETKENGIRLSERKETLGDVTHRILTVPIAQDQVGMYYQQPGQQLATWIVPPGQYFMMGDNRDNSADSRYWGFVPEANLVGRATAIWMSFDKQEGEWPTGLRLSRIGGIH
Assay: Inhibition of Escherichia coli type 1 signal peptidase lepB assessed as residual activity at 0.0012 uM preincubated for 10 mins followed by Dabcyl-VGGTATAYGAFSRPGLE-(EDANS)-OH substrate addition measured after 2 hrs by FRET based assay (reference value: 100%)
Square brackets hold non-standard residues; d marks the D form. Peptide text beside a SMILES is read from it. * marks the point of attachment. Benzoyl(4-(4-hexylphenyl)) = CCCCCCc1ccc(-c2ccc(C(=O)*)cc2)cc1; X1 = C[C@H](N*)B1OC2C[C@@H]3C[C@@H](C3(C)C)[C@]2(C)O1; Orn = NCCC[C@H](N)C(=O)O
observable: Activity (%)

molecule	measured-result
CCCCCCc1ccc(-c2ccc(C(=O)N[C@@H](CCCN)C(=O)N(C)[C@H](C(=O)N[C@@H](C)C(=O)N[C@H]3Cc4cn(nn4)CCCN4C[C@@H]5OB(O[C@@H]5C4)[C@H](C)NC3=O)[C@@H](C)O)cc2)cc1	95.3
CCCCCCc1ccc(-c2ccc(C(=O)N[C@@H](CCCN)C(=O)N[C@H](C(=O)N[C@@H](C)C(=O)N[C@@H](CC(N)=O)C(=O)N[C@@H](C)B3OC4C[C@@H]5C[C@@H](C5(C)C)[C@]4(C)O3)[C@@H](C)O)cc2)cc1 (some centres undefined) ({Benzoyl(4-(4-hexylphenyl))}-[Orn]TAN-X1)	98.6
C[C@@H]1NC(=O)[C@@H](NC(=O)[C@H](C)NC(=O)[C@@H](NC(=O)[C@H](CCCN)NC(=O)c2ccc(=O)n(-c3ccccc3)c2)[C@@H](C)O)Cc2cn(nn2)CCO[C@@H]2C[C@@H]3OB1O[C@@H]3C2	84.6
CCCCCCc1ccc(-c2nc3cc(C(=O)N[C@@H](CCCN)C(=O)N[C@H](C(=O)N[C@@H](C)C(=O)N[C@H]4Cc5cn(nn5)CCO[C@@H]5C[C@@H]6OB(O[C@@H]6C5)[C@H](C)NC4=O)[C@@H](C)O)ccc3[nH]2)cc1	100

* * *

Target: Signal peptidase I (Escherichia coli K-12) (UniProt P00803)
Test: Inhibition of Escherichia coli type 1 signal peptidase lepB assessed as residual activity at 0.0012 uM preincubated for 10 mins followed by Dabcyl-VGGTATAYGAFSRPGLE-(EDANS)-OH substrate addition measured after 2 hrs by FRET based assay (reference value: 100%)
Square brackets hold non-standard residues; d marks the D form. Peptide text beside a SMILES is read from it. * marks the point of attachment. Benzoyl(4-(4-hexylphenyl)) = CCCCCCc1ccc(-c2ccc(C(=O)*)cc2)cc1; boroAla = C[C@H](N*)B(O)O; Orn = NCCC[C@H](N)C(=O)O
observable: Activity

compound	measured-result
CCCCCCc1ccc(-c2ccc(C(=O)N[C@@H](CCCN)C(=O)N[C@H](C(=O)N[C@@H](C)C(=O)N[C@H]3Cc4cn(nn4)CCCN4C[C@@H]5OB(O[C@@H]5C4)[C@H](C)NC3=O)[C@@H](C)O)cc2)cc1	85.6%
CCCCCCC#Cc1cncc(C(=O)N[C@@H](CCCN)C(=O)N[C@H](C(=O)N[C@@H](C)C(=O)N[C@H]2Cc3cn(nn3)CCO[C@@H]3C[C@@H]4OB(O[C@@H]4C3)[C@H](C)NC2=O)[C@@H](C)O)c1	106%
CCCCCCc1ccc(-n2cc(C(=O)N[C@@H](CCCN)C(=O)N[C@H](C(=O)N[C@@H](C)C(=O)N[C@H]3Cc4cn(nn4)CCO[C@@H]4C[C@@H]5OB(O[C@@H]5C4)[C@H](C)NC3=O)[C@@H](C)O)ccc2=O)cc1	109%
CCCCCCc1ccc(-c2ccc(C(=O)N[C@@H](CCCNC(=N)N)C(=O)N[C@H](C(=O)N[C@@H](C)C(=O)N[C@H]3Cc4cn(nn4)CCCN4C[C@@H]5OB(O[C@@H]5C4)[C@H](C)NC3=O)[C@@H](C)O)cc2)cc1	106%
CCCCCCc1ccc(-c2ccc(C(=O)N[C@@H](CCCN)C(=O)N[C@H](C(=O)N[C@@H](C)C(=O)N[C@@H](CC(N)=O)C(=O)N[C@@H](C)B(O)O)[C@@H](C)O)cc2)cc1 ({Benzoyl(4-(4-hexylphenyl))}-[Orn]TAN-boroAla)	97.7%
C[C@@H]1NC(=O)[C@@H](NC(=O)[C@H](C)NC(=O)[C@@H](NC(=O)[C@H](CCCN)NC(=O)c2ccc(-c3ccccc3)cc2)[C@@H](C)O)Cc2cn(nn2)CCO[C@@H]2C[C@@H]3OB1O[C@@H]3C2	100%
CCCCCCc1ccc(-c2ccc(C(=O)N[C@@H](CCCN)C(=O)N[C@H](C(=O)N[C@@H](C)C(=O)N[C@H]3Cc4cn(nn4)CCO[C@@H]4C[C@@H]5OB(O[C@@H]5C4)[C@H](C)NC3=O)[C@@H](C)O)cc2)cc1	90.7%
C[C@@H]1NC(=O)[C@@H](NC(=O)[C@H](C)NC(=O)[C@@H](NC(=O)[C@H](CCCN)NC(=O)C#Cc2ccc(-c3ccccc3)cc2)[C@@H](C)O)Cc2cn(nn2)CCO[C@@H]2C[C@@H]3OB1O[C@@H]3C2	103%
CCCCCCc1ccc(-c2ccc(C(=O)N[C@@H](Cc3cnc[nH]3)C(=O)N[C@H](C(=O)N[C@@H](C)C(=O)N[C@H]3Cc4cn(nn4)CCCN4C[C@@H]5OB(O[C@@H]5C4)[C@H](C)NC3=O)[C@@H](C)O)cc2)cc1	94%
CCCCCCc1ccc(-c2c[nH]c3ccc(C(=O)N[C@@H](CCCN)C(=O)N[C@H](C(=O)N[C@@H](C)C(=O)N[C@H]4Cc5cn(nn5)CCO[C@@H]5C[C@@H]6OB(O[C@@H]6C5)[C@H](C)NC4=O)[C@@H](C)O)cc23)cc1	106%
CCCCCCc1ccc(-c2ccc(C(=O)N[C@@H](CCCN)C(=O)N[C@H](C(=O)N[C@@H](C)C(=O)N[C@H]3Cc4cn(nn4)CCN4C[C@@H]5OB(O[C@@H]5C4)[C@H](C)NC3=O)[C@@H](C)O)cc2)cc1	80.6%
